experiment: Plasma stability in mouse plasma; assay type: in vitro ADME; conditions: 1 μM, 120 min
readout-kind: Remaining Percentages (%) 120 min
The reply should contain only the number, in %.

molecule: CSC(=S)NC(C)Cc1ccc2c(c1)OCO2 (stereo not drawn) [Prodrug 10]
readout-value: 89.09

Incoming: Given CCOC(=S)NC(C)Cc1ccc2c(c1)OCO2 (stereo not drawn) [Prodrug 4] , state its recorded Remaining Percentages (%) 120 min.
Outgoing: 95.32

Incoming: Entry under review: CCSC(=S)N(C)C(C)Cc1ccc2c(c1)OCO2 (stereo not drawn) [Prodrug 11] . Reported Remaining Percentages (%) 120 min?
Outgoing: 94.17

Incoming: For the molecule CSC(=O)NC(C)Cc1ccc2c(c1)OCO2 (stereo not drawn) [Prodrug 6] , what Remaining Percentages (%) 120 min is on record?
Outgoing: 90.30

Incoming: State the recorded Remaining Percentages (%) 120 min for this entry: CCSC(=O)N(C)C(C)Cc1ccc2c(c1)OCO2 (stereo not drawn) [Prodrug 7]
Outgoing: 102.65

Incoming: Record request: Remaining Percentages (%) 120 min value, item COC(=S)N(C)C(C)Cc1ccc2c(c1)OCO2 (stereo not drawn) [Prodrug 1]
Outgoing: 100.00
